Test system: PC3 (Prostate Cancer) cells
Assay Notes: Cellular growth assay (MTT), PC3
Assay type: cell-based
Measurement Parameters: Homo sapiens, PC-3, 40 hr incubation, read-out: PC3 (inhibition of 50% of cellular growth)
pIC50: −log10 of the molar value.
Measurement Name: pIC50

CCCC(Nc1cncc(-c2ccc(O)c(OC)c2)n1)c1cccc(C(=O)NCCN(C)C)c1 (stereo not shown) ... ≥ 4.70
CCCC(Nc1cncc(-c2ccc(O)c(OC)c2)n1)c1ccc(O)cc1 (stereo not shown) ... < 4.70
CCCC(Nc1cncc(-c2ccc(O)c(OC)c2)n1)c1ccc(Cl)c(F)c1 (stereo not shown) ... < 4.70

// fetch pIC50 given entry COc1cc(-c2cncc(NC(C)c3ccccn3)n2)ccc1O (stereo not shown) < 4.70

// fetch pIC50 given entry CCCC(Nc1cncc(-c2cc(OC)c(O)c(OC)c2)n1)c1ccccc1 (stereo not shown) < 4.70

// fetch pIC50 given entry CCCC(Nc1nc(-c2ccc(O)c(OC)c2)cnc1C)c1ccccc1 (stereo not shown) ≥ 4.70

// fetch pIC50 given entry CCC[C@H](Nc1cncc(-c2ccc(N)c(OC)c2)n1)c1ccccc1 ≥ 4.70

// fetch pIC50 given entry CCCC(Nc1cncc(-c2ccc(O)c(OC)c2)n1)c1cccc(O)c1 (stereo not shown) < 4.70

// fetch pIC50 given entry CCCC(Nc1cncc(-c2ccc(O)c(OC)c2)n1)c1cccc(C)c1 (stereo not shown) ≥ 4.70

// fetch pIC50 given entry CCCC(Nc1cncc(-c2ccc(O)c(OCC)c2)n1)c1cncc(C)c1 (stereo not shown) ≥ 4.70

---

Quick reference: IC50 of the listed items.
Test system: K562 (Chronic Myeloid Leukemia) cells
Assay Notes: Cellular growth assay (MTT), K562
Type: cell-based
Measurement Parameters: Homo sapiens, 40 hr incubation, read-out: K562 (inhibition of 50% of cellular growth)

The examples below pair each entry with its known result.
CCCC(Nc1cncc(-c2ccc(O)c(OC)c2)n1)c1ccc(O)cc1 (centres unmarked) ... > 20 µM
CCCC(Nc1cncc(-c2ccc(O)c(OC)c2)n1)c1cccc(C(=O)NC)c1 (centres unmarked) ... ≤ 20 µM
CCCC(Nc1cncc(-c2ccc(O)c(OC)c2)n1)c1cccc(C(=O)NCc2cccnc2)c1 (centres unmarked) ... ≤ 20 µM
CCCC(Nc1cncc(-c2ccc(OC)c(OC)c2)n1)c1ccccc1 (centres unmarked) ... ≤ 20 µM

// fetch IC50 given entry CCC[C@H](Nc1cncc(-c2ccc(NCC)c(OC)c2)n1)c1ccccc1 ≤ 20 µM

---

Quick reference: pIC50 of the listed items.
Tested on: PC3 (Prostate Cancer) cells
Assay Notes: Cellular growth assay (MTT), PC3
Format: cell-based
Measurement Parameters: Homo sapiens, PC-3, 40 hr incubation, read-out: PC3 (inhibition of 50% of cellular growth)
pIC50: −log10 of the molar value.

The examples below pair each entry with its known result.
CCCC(Nc1cnc(C)c(-c2ccc(N)c(OC)c2)n1)c1ccccc1 (stereo not drawn) ... ≥ 4.70
CCCC(Nc1cncc(-c2ccc(O)c(OC)c2)n1)c1cccc(C(F)(F)F)c1 (stereo not drawn) ... ≥ 4.70
CCCC(Nc1nc(-c2ccc(N)c(OC)c2)cnc1C)c1ccccc1 (stereo not drawn) ... ≥ 4.70

// fetch pIC50 given entry CCCC(Nc1nc(-c2ccc(O)c(OC)c2)cnc1N)c1cccc(F)c1 (stereo not drawn) < 4.70

// fetch pIC50 given entry COc1cc(-c2cncc(NC(CCO)c3ccccc3)n2)ccc1O (stereo not drawn) < 4.70

// fetch pIC50 given entry CCCC(Nc1cncc(-c2ccc(O)c(OC)c2)n1)c1cccc(C(=O)NCc2cccnc2)c1 (stereo not drawn) < 4.70

// fetch pIC50 given entry CCCC(Nc1cncc(-c2ccc(O)c(OC)c2)n1)c1cccc(NC(C)=O)c1 (stereo not drawn) < 4.70

// fetch pIC50 given entry CCCC(Nc1cncc(-c2cc(OC)c(OC)c(OC)c2)n1)c1ccccc1 (stereo not drawn) < 4.70

// fetch pIC50 given entry CCCC(Nc1cncc(-c2ccc(O)c(OC)c2)n1)c1cc(C)ccc1C (stereo not drawn) ≥ 4.70

// fetch pIC50 given entry CCCC(=O)Nc1ccc(-c2cncc(NC(CCC)c3cccnc3)n2)cc1OC (stereo not drawn) ≥ 4.70

// fetch pIC50 given entry CCCC(Nc1cncc(-c2ccc(O)c(OC)c2)n1)c1ccc(C)cc1 (stereo not drawn) ≥ 4.70

// fetch pIC50 given entry CCCC(Nc1cncc(-c2ccc(O)c(OC)c2)n1)c1cc(F)cc(F)c1 (stereo not drawn) < 4.70

// fetch pIC50 given entry CCCC(Nc1cncc(-c2ccc(O)c(OC)c2)n1)c1cccc(F)c1 (stereo not drawn) ≥ 4.70

---

Test system: PC3 (Prostate Cancer) cells
Assay Notes: Cellular growth assay (MTT), PC3
Assay type: cell-based
Measurement Parameters: Homo sapiens, PC-3, 40 hr incubation, read-out: PC3 (inhibition of 50% of cellular growth)
Measurement Name: IC50

The examples below pair each entry with its known result.
CCC[C@H](Nc1cncc(-c2ccc(O)c(OC)c2)n1)c1cccc(F)c1 ... ≤ 20 µM
CCCC(Nc1cncc(-c2cc(C)c(O)c(C)c2)n1)c1ccc(F)cc1 (stereo not shown) ... ≤ 20 µM
CCCC(Nc1cncc(-c2ccc(OC)c(OC)c2)n1)c1ccccc1 (stereo not shown) ... ≤ 20 µM
CCC[C@H](Nc1cncc(-c2ccc(NC(C)=O)c(OC)c2)n1)c1ccccc1 ... > 20 µM
CCC[C@H](Nc1cncc(-c2ccc(O)c(OC)c2)n1)c1cccnc1 ... ≤ 20 µM
CCCC(Nc1cncc(-c2ccc(O)c(OC)c2)n1)c1ccc(Cl)cc1 (stereo not shown) ... ≤ 20 µM
CCCC(Nc1cncc(-c2ccc(NC(C)=O)c(OC)c2)n1)c1cccnc1 (stereo not shown) ... ≤ 20 µM
CCCC(Nc1cncc(-c2ccc(O)c(OC)c2)n1)c1ccc(N(CC)CC)cc1 (stereo not shown) ... > 20 µM

// fetch IC50 given entry CCCC(Nc1cncc(-c2ccc(O)c(OC)c2)n1)c1cccc(Cl)c1 (stereo not shown) ≤ 20 µM

// fetch IC50 given entry COCCC(Nc1cncc(-c2ccc(O)c(OC)c2)n1)c1ccccc1 (stereo not shown) ≤ 20 µM

---

Test system: K562 (Chronic Myeloid Leukemia) cells
Assay Notes: Cellular growth assay (MTT), K562
Type: cell-based
Measurement Parameters: Homo sapiens, 40 hr incubation, read-out: K562 (inhibition of 50% of cellular growth)
pIC50: −log10 of the molar value.
Quick reference: pIC50 of the listed items.

The examples below pair each entry with its known result.
CCC[C@H](Nc1cncc(-c2ccc(N)c(OC)c2)n1)c1ccccc1 ... ≥ 4.70
CCCC(Nc1cncc(-c2ccc(O)c(OC)c2)n1)c1cccc(F)c1F (stereo not shown) ... ≥ 4.70
CCCC(Nc1cncc(-c2cc(C)c(OCCN(CC)CC)c(C)c2)n1)c1ccc(F)cc1 (stereo not shown) ... ≥ 4.70
CCCC(Nc1cncc(-c2ccc(O)c(OC)c2)n1)c1ccc(OC)c(OC)c1 (stereo not shown) ... ≥ 4.70
CCCC(Nc1cncc(-c2ccc(O)c(OC)c2)n1)c1cccc(OC)c1 (stereo not shown) ... ≥ 4.70

// fetch pIC50 given entry CCCC(Nc1cncc(-c2ccc(O)c(OC)c2)n1)c1ccc(OC)nc1 (stereo not shown) ≥ 4.70

// fetch pIC50 given entry CCCC(Nc1cncc(-c2ccc(N)c(OC)c2)n1)c1ccc(F)cc1 (stereo not shown) ≥ 4.70

// fetch pIC50 given entry CCCC(Nc1cncc(-c2ccc(O)c(OC)c2)n1)c1ccccc1 (stereo not shown) ≥ 4.70

// fetch pIC50 given entry CCCC(Nc1cncc(-c2ccc(O)c(OC)c2)n1)c1cccnc1 (stereo not shown) ≥ 4.70

// fetch pIC50 given entry CCCC(Nc1cncc(-c2ccc(O)c(OC)c2)n1)c1cccc(C(F)(F)F)c1 (stereo not shown) ≥ 4.70

---

System: PC3 (Prostate Cancer) cells
Assay Notes: Cellular growth assay (MTT), PC3
Format: cell-based
Measurement Parameters: Homo sapiens, PC-3, 40 hr incubation, read-out: PC3 (inhibition of 50% of cellular growth)
Measurement Name: IC50

CCCC(Nc1cncc(-c2ccc(O)c(OC)c2)n1)c1cncc(C)c1 (stereo not shown) ... ≤ 20 µM

// fetch IC50 given entry CCCC(Nc1cncc(-c2ccc(O)c(OC)c2)n1)c1ccc(SC)cc1 (stereo not shown) > 20 µM

// fetch IC50 given entry CCCC(Nc1cncc(-c2ccc(N)c(OC)c2)n1)c1ccccc1 (stereo not shown) > 20 µM

// fetch IC50 given entry CCCC(Nc1cncc(-c2ccc(O)c(OC)c2)n1)c1c(F)cccc1Cl (stereo not shown) ≤ 20 µM

// fetch IC50 given entry COc1cc(-c2cncc(NC(CC(C)C)c3ccccc3)n2)ccc1O (stereo not shown) > 20 µM

// fetch IC50 given entry CCCC(Nc1cncc(-c2ccc(O)c(OC)c2)n1)c1cccc(C(=O)NC(C)C2CC2)c1 (stereo not shown) > 20 µM

---

System: PC3 (Prostate Cancer) cells
Assay Notes: Cellular growth assay (MTT), PC3
Assay type: cell-based
Measurement Parameters: Homo sapiens, PC-3, 40 hr incubation, read-out: PC3 (inhibition of 50% of cellular growth)
Quick reference: IC50 of the listed items.

CCCC(Nc1cncc(-c2cccc(OC)c2)n1)c1ccccc1 (stereo not shown) ... > 20 µM
COc1cc(-c2cncc(NC(CCN3CCN(C)CC3)c3ccccc3)n2)ccc1O (stereo not shown) ... ≤ 20 µM
CCCC(Nc1cncc(-c2ccc(O)c(OC)c2)n1)c1cccc(C#N)c1 (stereo not shown) ... ≤ 20 µM
CCCC(Nc1cncc(-c2ccc3c(c2)OCO3)n1)c1cccnc1 (stereo not shown) ... > 20 µM
CCCC(Nc1cncc(-c2ccc(N)c(OC)c2)n1)c1cccnc1 (stereo not shown) ... ≤ 20 µM

Next up:
// fetch IC50 given entry COc1cc(-c2cncc(NC(CCC3OCCO3)c3cccc(Cl)c3)n2)ccc1O (stereo not shown) > 20 µM
